Form field: pKd (one value per entry).
Target: PPARγ (Homo sapiens, UniProt P37231)
Sequence (P37231 238-505 limits assumed): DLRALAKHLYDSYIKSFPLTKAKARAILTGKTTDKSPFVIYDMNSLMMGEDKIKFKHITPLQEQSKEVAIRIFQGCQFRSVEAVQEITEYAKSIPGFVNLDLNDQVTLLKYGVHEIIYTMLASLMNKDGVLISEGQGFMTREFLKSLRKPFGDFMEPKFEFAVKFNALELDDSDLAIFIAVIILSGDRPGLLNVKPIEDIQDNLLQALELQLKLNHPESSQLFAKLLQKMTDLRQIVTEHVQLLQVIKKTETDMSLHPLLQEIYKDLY
Assay: Cross-curve PPAR transactivation test (PPARγ)
Conditions: HeLN cells, Gal-hPPARγ, luciferase reporter; cross curves against reference agonist, Schild regression; n.a means not active; read-out: PPAR gamma Kd app
Protocol: The activation of PPAR receptors with an agonist (activator) in HeLN cells leads to the expression of a reporter gene, luciferase, which, in the presence of a substrate, generates light. The modulation of the PPAR receptors is measured by quantifying the luminescence produced after incubating the cells in the presence of a reference agonist. The ligands displace the agonist from its site. The measurement of the activity is performed by quantifying the light produced. […]
pKd: −log10 of the molar value.
reported endpoint: pKd

| mol | target of assay | numeric result |
| --- | --- | --- |
| CCCCOc1cc(CCC(=O)O)ccc1-c1cccc(N(C)C(=O)Nc2ccccc2)c1 | PPARγ (Homo sapiens, UniProt P37231) | 8.70 |
| CCCCCCCNC(=O)N(C)c1cccc(-c2ccc(CCC(=O)O)cc2OCc2ccc(F)cc2)c1 | PPARγ (Homo sapiens, UniProt P37231) | 9.00 |
| CCCCCNC(=O)N(C)c1cccc(-c2ccc(CCC(=O)O)cc2OCCCC)c1 | PPARγ (Homo sapiens, UniProt P37231) | 9.30 |
